MEASURED ON: thrombin (Bos taurus, UniProt P00735)
CONDITION DESCRIPTION: read-out: Ki, Thrombin; Table 1
OBSERVED PROPERTY: log10 Ki (log10 of the value in nM)

- MOLECULE: "CC1(C)C2CCC1(CS(=O)(=O)N[C@@H](Cc1cccc(C(=N)N)c1)C(=O)N1CCN(S(C)(=O)=O)CC1)C(=O)C2 (single isomer, unassigned) [Compound 8]"
  log10 Ki: 1.49
- MOLECULE: "CCCCCC(=O)N1CCN(C(=O)C(Cc2cccc(C(=N)N)c2)NS(=O)(=O)c2ccc3ccccc3c2)CC1 (stereo not drawn)"
  log10 Ki: 3.81
- MOLECULE: "N=C(N)c1cccc(CC(NS(=O)(=O)c2ccc3ccccc3c2)C(=O)N2CCN(S(=O)(=O)c3ccccc3)CC2)c1 (stereo not drawn)"
  log10 Ki: 1.61
- MOLECULE: "COc1cc(C)c(S(=O)(=O)NC(Cc2cccc(C(=N)N)c2)C(=O)N2CCN(S(C)(=O)=O)CC2)c(C)c1C (stereo not drawn)"
  log10 Ki: 1.51
- MOLECULE: "CCS(=O)(=O)N1CCN(C(=O)C(Cc2cccc(C(=N)N)c2)NS(=O)(=O)c2ccc3ccccc3c2)CC1 (stereo not drawn)"
  log10 Ki: 1.64
- MOLECULE: "N=C(N)c1cccc(CC(NS(=O)(=O)c2ccc3ccccc3c2)C(=O)N2CCN(S(=O)(=O)c3ccc4ccccc4c3)CC2)c1 (stereo not drawn)"
  log10 Ki: 1.38
- MOLECULE: "CN(C)C(=O)N1CCN(C(=O)C(Cc2cccc(C(=N)N)c2)NS(=O)(=O)c2ccc3ccccc3c2)CC1 (stereo not drawn)"
  log10 Ki: 0.94
- MOLECULE: "CN(C)C(=O)N1CCN(C(=O)C(Cc2cccc(C(=N)N)c2)NS(=O)(=O)c2cccc3ccccc23)CC1 (stereo not drawn)"
  log10 Ki: 1.83
- MOLECULE: "Cc1c(C)c(S(=O)(=O)NC(Cc2cccc(C(=N)N)c2)C(=O)N2CCN(S(C)(=O)=O)CC2)c(C)c2c1OC(C)(C)CC2 (stereo not drawn)"
  log10 Ki: 0.87
- MOLECULE: "Cc1ccc(S(=O)(=O)N2CCN(C(=O)C(Cc3cccc(C(=N)N)c3)NS(=O)(=O)c3ccc4ccccc4c3)CC2)cc1 (stereo not drawn)"
  log10 Ki: 1.34
- MOLECULE: "CS(=O)(=O)N1CCN(C(=O)C(Cc2cccc(C(=N)N)c2)NS(=O)(=O)c2cccc3ccccc23)CC1 (stereo not drawn)"
  log10 Ki: 1.41
- MOLECULE: "CC1(C)C2CCC1(CS(=O)(=O)N[C@@H](Cc1cccc(C(=N)N)c1)C(=O)N1CCN(S(C)(=O)=O)CC1)C(=O)C2 (single isomer, unassigned) [Compound 7]"
  log10 Ki: 1.08
